Assay: Pharmacokinetic analysis of SYN120 tablets, multiple dose once daily (Example 9)
Assay type: in vivo, human
Conditions: both sexes, human, plasma, oral, 100 mg, Day 14, 100 mg QD; median; read-out: Tmax
readout: Tmax (h)

In [3]: df
Out[3]:
                                   compound  reported_value
0  NC(=O)NC[C@@H]1CCCc2cc(S(=O)(=O)c3cccc(F)c3)ccc21 [SYN120]               3

====

Assay: Pharmacokinetic analysis of SYN120 tablets, multiple dose once daily (Example 9)
Assay type: in vivo, human
Settings: both sexes, human, plasma, oral, 300 mg, Day 14, 300 mg QD; geometric mean; read-out: AUC0-last
readout: AUC(0-t) (ng·h/mL)

                                   compound  reported_value
0  NC(=O)NC[C@@H]1CCCc2cc(S(=O)(=O)c3cccc(F)c3)ccc21 [SYN120]           45700
